# experimental_system: human CD3 (human, UniProt P07766 23-207; P09693 23-182; P04234 22-171)
# run_description: cell-based or functional assay
Here the recorded Span, indirect ADC surrogate growth inhibition on Jurkat cells is given for each entry.
result_type: Span, indirect ADC surrogate growth inhibition on Jurkat cells (%)

binder: F332-1E2 (antibody, mouse IgG2a, V domains shown, Sister clone 8C5 shares the same entries; also called F332-1E2-2; F332-1E2 (8C5)) VH: QVQLQQPGAELGKPGTSVKLSCKASGYTFTSYWIHWVKQRPGQGLEWVGNINPNSGSINYNEKFKNKATLTVDKSSSTAYMQLSTLTSEDFAVYYCTRDTSGQYYFDYWGQGTTLTVSS VL: DIVMSQSPSSLAVSAGERVTMSCKSSQSLLNSRTRKNYLAWYQQKPGQSPKLLIYWASTRESGVPDRFTGSGSGTDFTLTISSVQAEDLAVYYCIQSYHLRTFGGGTKLEIK
output_unit: %
value_observed: 95

binder: F332-4D6 (antibody, mouse IgG2a, V domains shown, also called F332-4D6-2; F322-4D6) VH: QVQLQQSGAELGKPGTSVKLSCKASGYTFTSYWIHWVKQRPGQGLEWIGNINPNSGSTNYNEKFKRKATLTADKSSSTAYMQLSTLTSEDFAVYYCTRDTSGQYYFDYWGQGTTLTVSS VL: DIVMSQSPSSLAVSAGEKVTMSCKSSQSLLNSRTRKNYLAWYQQKPGQSPKVLIYWASTRESGVPDRFTGSGSGTDFTLTISSVQAEDLAVYYCKQSYHLRTFGGGTKLEIK
output_unit: %
value_observed: 92

binder: F332-7C5 (antibody, mouse IgG2a, V domains shown, also called F332-7C5-2; F332-7C5 (5E12, 10A8)) VH: QVQLQQPGAELGKPGTSVKLSCKASGYTFTSYWMHWVKQRPGQGLEWIGNINPSSGITNYNERFKNKATLTVDKSSTTAYMQLSILTSEDSAVYYCSRDISGQYYFNFWGQGTTLTVSS VL: DIVMSQSPSSLAVSAGEKVTMSCKSSQSLLNSRTRKNYLAWYQQKPGQSPKLLIYWASTRESGVPDRFTGTGSGTDFTLTISSVQAEDLAVYYCKQSYNLRTFGGGTKLEIK
output_unit: %
value_observed: 95

binder: F332-5F2 (antibody, mouse IgG2b, V domains shown, also called F332-5F2-2; F332-5F2 (6G8, 13A3)) VH: QVQLQQPGAELGKPGTSVKLSCKASGYTFTSYWMHWVKQRPGQGLEWIGNINPNGGDSNYNEKFKSKATLTVDKSSSTAYMQLSTLTSEDSAVYYCTRDISGQYYFDFWGQGTSLTVFS VL: DILMSQSPSSLAVSAGEQVTMSCKSSQSLLNSRTRKNYLAWYQQKPGQSPKLLIFWASTRKSGVPDRFTGSGSGTYFTLTISSVQAEDLAVYYCTQSYNLRTFGGGTKLEIK
output_unit: %
value_observed: 95

binder: F332-7C9 (antibody, mouse IgG2a, V domains shown, also called F332-7C9-2; F332-7C9 (5C7, 7D10)) VH: QVQLQQSGPELVKPGASVRISCKASGYTFTSHYLHWVKQRPGQGFEWIGWIYPGDGNTRYNEKFKDRATLTADKSSSTAYLHLSSLTSEDSAVYFCARDAGYYFDYWGQGTTLAVSS VL: DIVMSQSPSSLAVSAGEKVTMSCKSSQSLLNSRTRKNYLAWYQQKPGQSLKVLIYWASTRESGVPDRFTGSGSGTDFTLTISSVQAEDLAVYYCKQSYSLRTFGGGTKLEIK
output_unit: %
value_observed: 96

binder: F332-3E9 (antibody, mouse IgG2a, V domains shown, also called F332-3E9-2; F332-3E9 (12G4)) VH: QVQLQQPGAELGKPGTSVKLSCKASGYTFTSYWIHWLKQRPGQGLEWIGNINPNGGSINCNEKFTTKATLTIDKSSSTAYMQLSTLTSEDFAVYYCTRDTSGQYYFDYWGQGTTLTVSS VL: DIMMSQSPSSLAVSAGEKVTMSCKSSQSLLNSRTRKNYLAWYQQKPGQSPKLLIYWASTRESGVPDRFTGSGSGTDFTLTISSVQAEDLAVYYCTQSYHLRTFGGGTKLEIK
output_unit: %
value_observed: 94

binder: F332-6D7 (antibody, mouse IgG2a, V domains shown, also called F332-6D7-2; F332-6D7 (7G4)) VH: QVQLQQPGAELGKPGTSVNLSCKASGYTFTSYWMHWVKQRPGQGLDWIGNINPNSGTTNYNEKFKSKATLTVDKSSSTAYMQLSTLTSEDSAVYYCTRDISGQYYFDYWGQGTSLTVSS VL: DIVMSQSPSSLAVSAGEKVTMSCKSSQSLLNSRTRKNYLAWYQQKPGQSPKLLIYWASTRESGVPDRFTGSGSGTDFTLTISSVQAEDLAVYYCKQSYSLRTFGGGSKLEIK
output_unit: %
value_observed: 96

binder: F282-2D5 (antibody, V domains shown, also called F282-2D5-2) VH: QVQLQQPGTELVKPGASVKLSCKASGYTFTSYWMHWVKQRPGQGLEWIGNINPSNGGTNYNENFKTKATLTVDKSSSTAYMQLSSLTSEDSAVYYCARDRSGQYYFDYWGQGTTLTVSS VL: DIVMSQSPSSLAVSAGEKVTMSCKSSQSLLNSRTRKNYLAWYQQKPGQSPKLLIYWASTRESGVPDRFTGSGSGTDFTLTISSVQAEDLAVYYCIQSYHLRTFGGGTILEIK
output_unit: %
value_observed: 97

binder: F332-1C9 (antibody, mouse IgG2a, V domains shown, Sister clones 1A10, 5H8, 8B11 share the same entries; also called F332-1C9-2; F332-1C9 (1A10, 5H8, 8B11)) VH: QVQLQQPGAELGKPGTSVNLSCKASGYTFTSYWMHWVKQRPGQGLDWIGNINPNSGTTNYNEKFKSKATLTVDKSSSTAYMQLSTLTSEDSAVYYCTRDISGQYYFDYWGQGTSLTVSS VL: DIVMSQSPSSLAVSAGEKVTMSCKSSQSLLNSRTRKNYLAWYQQKPGQSPKLLIYWASTRESGVPDRFTGSGSGTDFTLIISSVQAEDLAVYYCKQSYSLRTFGGGTKLEIK
output_unit: %
value_observed: 94
